# credit: PubChem BioAssay AID1159580

normalized growth by entry:
test: chemical genetic growth profiling, strain panel (AID 1159580);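 also: tested at 20 µM; growth read once vehicle control cultures reached saturation at 30 °C; 1 = growth at the plate median or of vehicle wells; lower values mean less growth of the strain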; conditions: S. cerevisiae deletion strains, growth OD, locus YBR231C, strain swc5, active compounds read low
Among all 5,500 compounds or so, about 2,000 (36%) were called active. Inconclusive results (about 18%) are left out. This is one part of the list.
Could you respond with only the numeric value?

Below are worked cases with known answers.
[
  {
    "compound": "CC1CCc2cc(F)cc3c(=O)c(C(=O)O)cn1c23 (stereo not given)",
    "normalized growth": 0.997
  },
  {
    "compound": "Clc1ccc(C(c2ccc(Cl)cc2)C(Cl)(Cl)Cl)cc1",
    "normalized growth": 1.01
  }
]

Look up and state reported normalized growth for CCn1cc(C(=O)O)c(=O)c2cc(F)c(N3CCNCC3)nc21
0.998

Look up and state reported normalized growth for C[C@H]1COc2c(N3CCN(C)CC3)c(F)cc3c(=O)c(C(=O)O)cn1c23
1.02

Look up and state reported normalized growth for O=C(/C=C/c1ccc(O)c(O)c1)OC(Cc1ccc(O)c(O)c1)C(=O)O (stereo not given)
0.994

----------
experiment: chemical genetic growth profiling, strain panel (AID 1159580);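 also: tested at 20 µM; growth read once vehicle control cultures reached saturation at 30 °C; 1 = growth at the plate median or of vehicle wells; lower values mean less growth of the strain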; conditions: S. cerevisiae deletion strains, growth OD, locus YGR135W, strain pre9
About 2,000 (36%) of roughly 5,500 compounds were called active. Roughly 18% stayed inconclusive and do not appear here. No stated cut-off is given here; in the data, active means normalized growth mostly below about 0.91 (no sharp cut-off); inconclusive means no clear call, values can overlap the other calls; inactive means mostly above about 0.92. The list shows a part of the results.
The reply should be one of these categories: 1 (yes) for active, 0 (no) for inactive

Please share the test call associated with CC(=O)Oc1cc(OC(C)=O)c2c(c1)O[C@H](c1ccc(OC(C)=O)c(OC(C)=O)c1)[C@@H](OC(C)=O)C2 .
0 (no)

Please share the test call associated with O=C(O[C@@H]1Cc2c(O)cc(O)cc2O[C@@H]1c1cc(O)c(O)c(O)c1)c1cc(O)c(O)c(O)c1 .
1 (yes)

Please share the test call associated with CCCCCCCCCCC[C@@H](C[C@H]1OC(=O)[C@H]1CCCCCC)OC(=O)[C@@H](CC(C)C)NC=O .
0 (no)

Please share the test call associated with COc1ccc([C@H]2Oc3c(I)c(OC)cc(OC)c3C[C@@H]2O)cc1OC .
0 (no)

----------
test: chemical genetic growth profiling, strain panel (AID 1159580);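 also: tested at 20 µM; growth read once vehicle control cultures reached saturation at 30 °C; 1 = growth at the plate median or of vehicle wells; lower values mean less growth of the strain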; conditions: S. cerevisiae deletion strains, growth OD, locus YHR027C, strain rpn1, active compounds read low
Hit rate of the full screen: of about 5,500 compounds, about 2,000 (36%) were called active. About 18% were inconclusive and are not listed. This is one part of the list.
normalized growth by entry:
Could you respond with only the numeric value?

Below are worked cases with known answers.
[
  {
    "compound": "CN(C)CCN(Cc1cccs1)c1ccccn1",
    "recordedResult": 1
  },
  {
    "compound": "COc1cc([C@@H]2c3cc4c(cc3C(OC3O[C@@H]5COC(C)O[C@H]5[C@H](O)[C@H]3O)C3COC(=O)[C@@H]32)OCO4)cc(OC)c1O (stereo partly drawn)",
    "recordedResult": 1.01
  },
  {
    "compound": "C[C@@H]1CC(Cl)CC[C@H]1C(=O)OC(C)(C)C (stereo partly drawn)",
    "recordedResult": 0.981
  }
]

Look up and state reported normalized growth for COc1ccc(CN(CCN(C)C)c2ccccn2)cc1
1.02

Look up and state reported normalized growth for C=CCCCCCCCCCCCc1ccco1
0.937

Look up and state reported normalized growth for C=CCc1ccc(O)c(OC)c1
1

Look up and state reported normalized growth for COc1cc([C@@H]2c3cc4c(cc3[C@@H](O)C3COC(=O)C32)OCO4)cc(OC)c1O (stereo partly drawn)
0.986
